Tested on: HOP-62 NSCLC
TEST_PROTOCOL: NCI tumour cell line growth inhibition, 48 h
A collection of molecules and their measured TGI
ATTRIBUTE_MEASURED: TGI

1) C=C(C)C1CC/C(C)=C/CC[C@]2(C)O[C@H]2CC/C(COC(C)=O)=C\[C@@H]1O (stereo partly specified): > 50 µM
2) Cn1c(-c2cccs2)cc(-c2cccs2)c1-c1ccco1: > 100 µM
3) CC(=O)c1ccc2c(ccc(=O)n2C)c1: > 100 µM
4) CCCCCCCCCc1cc[n+](CC(=O)c2ccc([N+](=O)[O-])cc2)cc1: 2.39 µM
5) C/C=C\C(CC(=O)NCCC1CN(S(=O)(=O)C(F)(F)F)c2ccccc21)CC(=O)OC (stereo unspecified): > 100 µM
6) CCOC(=O)c1nc2ccccc2nc1Nc1ccc(OC)c(OC)c1: > 100 µM
7) O=C(/C=C/C=C/c1c(C2CC2)nc2ccccc2c1-c1ccc(F)cc1)c1cccs1: 7.25 µM
8) Cc1cc(O)c(C2=NN(c3ccc(S(N)(=O)=O)cc3)C(c3ccc(N(C)C)cc3)C2)c(C)c1Cl (stereo unspecified): 34.8 µM
9) C=C1C(=O)C[C@@]23CCC[C@@]12CC(OCOC)C3 (stereo partly specified): 25.9 µM
10) CN(C)/N=C(/c1nc2ccc([N+](=O)[O-])cc2[nH]c1=O)C(O)c1ccco1 (stereo unspecified): > 100 µM
11) OC[C@]1(n2nc3ccccc3n2)OC[C@@H]1c1ccccc1: > 100 µM
12) CN(CC#N)C1CCCC[C@H]1O (stereo partly specified): > 100 µM
13) N=c1c2c(=S)n(-c3ccccc3)c(=S)n(-c3ccccc3)c2nc(SCCCN2CCN(c3cccc(Cl)c3)CC2)n1-c1ccccc1: > 100 µM
14) COC(=O)NC1(NC(=O)OC)NC(=O)c2cc(OC)c(OC)c(OC)c2N1: > 100 µM
15) C=C(C)CC1(O)C(=O)C(OCC)=C1OCC (stereo unspecified): > 100 µM
16) CN1CCN(c2ccc(Nc3nc(N)c(C(=O)c4ccc5c(c4)OCCO5)s3)cc2)CC1: 13.2 µM
17) COP(=O)(Cc1ccccc1)Cc1ccccc1: > 100 µM
18) CC1(C)CC(=O)C2=C(C1)NC1=C(C(=O)CC(C)(C)C1)C2c1ccc([N+](=O)[O-])cc1: > 100 µM
19) O=C(CC1(O)C(=O)Nc2ccccc21)c1ccco1 (stereo unspecified): > 100 µM
20) O=C1CC(=O)NC(=NN2C(=O)/C(=C/c3ccccc3)N=C2c2ccccc2)N1: > 100 µM
21) O=c1c(O)cccc2cc(O)c(O)c(O)c12: > 100 µM
22) C#CCN(N=O)C(=O)NC(CCCNC(=O)OCc1ccccc1)C(=O)OCc1ccccc1 (stereo unspecified): > 100 µM
23) CN1CCN(c2cc(C(=O)Nc3cc4cc(-c5cnn(C)c5)ccc4cn3)ccn2)CC1: 12.7 µM
24) CN(C)Cc1cc(C(C)(C)C)ccc1-c1ccc(C(C)(C)C)cc1CN(C)C: > 100 µM
25) COC1=CC(=O)C(OC)=C(OC)C1=O: 29.7 µM
26) CC1=C(C(=O)Nc2cc(=O)n(C)c(=O)n2C)C(c2ccc([N+](=O)[O-])cc2)C(C(=O)Nc2cc(=O)n(C)c(=O)n2C)=C(C)N1: > 100 µM
27) Cc1cccc(CC(Cc2c(C)cccc2C(=O)O)C(=O)O)c1 (stereo unspecified): > 100 µM
28) Cc1cc2cn3c4ccc(O)cc4[nH]c(=O)c3c2cc1C: 1.33 µM
29) c1ccc(P(CCP(c2ccccn2)c2ccccn2)c2ccccc2)cc1: > 100 µM
30) CC(C)CC(=O)Nc1n[nH]c2c1CN(C(=O)C1CCN(C)CC1)C2(C)C: > 10 µM
31) Clc1ccc(C2=Nn3c(nnc3-c3cc(Cl)cc(Cl)c3Cl)SC2)cc1: 32.5 µM
32) CCN(CC)c1ccc2c(c1)Oc1nc(N)c(C#N)c(N)c1C2Sc1ccc(OC)cc1 (stereo unspecified): 3.43 µM
33) COc1ccc(Cc2cc3c(cc2OCC(=O)O)OCO3)cc1: > 100 µM
34) Cc1nc([C@H]2CC[C@H]3[C@@H]4CCC5=CC(=O)CC[C@]5(C)[C@H]4CC[C@]23C)cs1: > 100 µM
35) COc1cc(C2SC(N)=Nc3c2c(C)nn3C(=O)c2ccccc2O)ccc1O (stereo unspecified): > 10 µM
36) C=C1c2[nH]c3ccccc3c2C2C(CC)C1CCN2C (stereo unspecified): > 100 µM
37) CC=CCOc1cc(NC(=S)OC(C)C)ccc1Cl (mixture of isomers): 45.4 µM
38) S=C(Nc1ccc(Cl)cc1)Nc1ccc(-c2nc3ccccc3o2)cc1: 57.4 µM
39) N#CSc1c[nH]c2ccc(/C=C/C(=O)/C=C(/C=C/c3ccc4[nH]cc(SC#N)c4c3)OB(F)F)cc12: 38.9 µM
40) S=P1(N2CCCCC2)Oc2ccc3ccccc3c2-c2c(ccc3ccccc23)O1: > 100 µM
41) O=C1O[C@H]2[C@H](O)[C@@H](OC(=O)c3cc(O)c(O)c4c3[C@@H]3C1=CC(=O)C(O)(O)C3(O)O4)[C@H](OC(=O)c1cc(O)c(O)c(O)c1)O[C@@H]2CO (stereo partly specified): > 100 µM
